- System: SW-620
- Measurement Protocol: NCI tumour cell line growth inhibition, 48 h
Active and inactive are the calls of the source. Cut-off read from the data, not from the text of the source: active = GI50 up to about 1.1 µM and inactive = higher.
Could you please pick one outcome from this set? active, inactive

Compound	System Tested	Group Label
COc1ccc(C(=O)c2[nH]c(Nc3cc(C)ccn3)c(C(=S)Nc3ccccc3)c2N)cc1	SW-620	inactive
O=C1c2ccccc2C(=O)N1n1c(Cc2ccc([N+](=O)[O-])cc2)n[nH]c1=O	SW-620	inactive
CC(=O)O[C@@H]1C2=C(C3=C([O-])C4=CC=CC(=O)C4C(=O)C3=C2[N+]#N)[C@H](OC(C)=O)[C@@H](OC(C)=O)[C@]1(C)O (some centres not stated)	SW-620	active
CN(C)/N=N/c1nc2c(c(=O)n(C)c(=O)n2C)n1C	SW-620	inactive
On1c(-c2ccccc2)c(-c2ccccc2N2CCCC2)c2ccccc21	SW-620	inactive
CC(N)C(C)Cc1ccccc1 (configuration not stated)	SW-620	inactive
COc1ccc2c(c1)-c1nc(=O)n(CCCN(C)C)c3ccc([N+](=O)[O-])c(c13)N2	SW-620	active
CC1(C)CCCCC1/C=C/C(CC(O)(C(F)(F)F)C(F)(F)F)=N\Nc1ccc([N+](=O)[O-])cc1[N+](=O)[O-] (configuration not stated)	SW-620	inactive
CC(=O)Oc1ccc(/C=C/C(=O)OCCOC(=O)/C=C/c2ccc(OC(C)=O)c(OC(C)=O)c2)cc1OC(C)=O	SW-620	inactive
O=NN(CCCl)C(=O)N[C@H]1CC[C@H](C(=O)O)CC1	SW-620	inactive

Prompt: # lookup: test call for O=C(/C=C/c1ccc(Cl)cc1)Oc1ccc(/C=C2\CCCCC2=O)cc1
Response: inactive

Prompt: Quick one: O=C(/C=C/c1ccc(Cl)cc1)c1ccccc(=O)c1O
Response: inactive

Prompt: Quick one: O=C1/C(=C/c2ccccc2)NC(=S)N1CN1CCOCC1
Response: inactive

Prompt: Quick one: O=C1SC(c2ccc(Cl)cc2)(c2ccc(Cl)cc2)c2ccccc21
Response: inactive

----------
- System: NCI-H226
- Measurement Protocol: NCI tumour cell line growth inhibition, 48 h
Activity calls are given as the source filed them. Rule as the data show it: active = GI50 up to about 1.1 µM and inactive = higher.
Could you please pick one outcome from this set? active, inactive

Prompt: # lookup: test call for O=c1ccn([C@H]2CSC[C@@H](CO)C2)c(=O)[nH]1
Response: inactive

Prompt: Quick one: NN/C(=N\S(=O)(=O)c1cccc2nsnc12)Nc1ccc(Cl)cc1
Response: inactive

Prompt: Quick one: CC1(C)CCCCC1/C=C/C(CC(O)(C(F)(F)F)C(F)(F)F)=N\Nc1ccc([N+](=O)[O-])cc1[N+](=O)[O-] (stereo not given)
Response: active

Prompt: Quick one: COC(=O)C1CC/C(=N/c2ccc(C)cc2C)N1 (stereo not given)
Response: inactive

Prompt: Quick one: CCN(CC)CCCNC(=O)c1cc(-c2nccn2C)nc2ccccc12
Response: inactive

Prompt: Quick one: CCOC(=O)c1cccc(NC(=O)CCl)c1
Response: inactive

Prompt: Quick one: CC1=C(C)C(=O)O[C@@H]([C@](C)(O)[C@]2(O)CC[C@@]3(O)[C@@H]4C[C@H]5O[C@]56[C@@H](O)C=CC(=O)[C@]6(C)[C@H]4CC[C@]23C)C1
Response: inactive

----------
- Test system: SK-MEL-5
- Measurement Protocol: NCI tumour cell line growth inhibition, 48 h
Active and inactive are the calls of the source. Cut-off read from the data, not from the text of the source: active = GI50 up to about 1.1 µM and inactive = higher.
Could you please pick one outcome from this set? active, inactive

Solved cases below.
Compound	Group Label
CC(C)(C)C#C[P+](c1ccccc1)(c1ccccc1)c1ccccc1	active
Cc1cc2c(cc1C)C(=O)C1(C2)Cc2cc3c(cc2C1=O)CCC3 (configuration not stated)	inactive
CN(C)/C(F)=P\C(F)(F)F (configuration not stated)	inactive
COc1ccccc1-n1c(=O)n(C)c(=O)n1C(C)(C)C	inactive

Prompt: # lookup: test call for CCCCCC1=CC(=O)C1(Cl)Cl
Response: inactive

----------
- System: NCI-H23
- Measurement Protocol: NCI tumour cell line growth inhibition, 48 h
Active and inactive are the calls of the source. Rule as the data show it: active = GI50 up to about 1.1 µM and inactive = higher.
Could you please pick one outcome from this set? TRUE (active), FALSE (inactive)

Solved cases below.
Compound	System Tested	Group Label
CC(=O)n1c2ccc(Br)cc2c2nc3ccccc3nc21	NCI-H23	FALSE
COc1ccc(/N=N/c2ccc3oc(=O)c(C(=O)Nc4ccccc4)cc3c2)cc1	NCI-H23	FALSE
O=CNNC(=O)Nc1ccc(Cl)cc1	NCI-H23	FALSE

Prompt: # lookup: test call for O=C(O)c1cc2ccccc2oc1=O [COUMARIN-3-CARBOXYLIC ACID]
Response: FALSE

Prompt: Quick one: COc1ccccc1C1C2=C(COC2=O)OC(C)(C)Oc2cc3c(cc21)OCO3 (stereo not given)
Response: FALSE

Prompt: Quick one: CN(Cc1cnc2nc(N)nc(N)c2n1)c1ccc(C(=O)N[C@@H](CCC(=O)O)C(=O)O)cc1 [METHOTREXATE]
Response: TRUE

----------
In this section we review reported GI50 values for a set of molecules.
- Tested on: IGROV-1
- Measurement Protocol: NCI tumour cell line growth inhibition, 48 h
Activity calls are given as the source filed them. Rule as the data show it: active = GI50 up to about 1.1 µM and inactive = higher.

Consider the worked cases shown below.
Molecule	GI50
CC(=O)NNc1nc(C)c(C(=O)/C=C/c2ccc(Cl)c(Cl)c2)s1	> 100 µM (inactive)
CN(O)C(=O)CCCC(=O)NCC(C)(C)CNC(=O)CCCC(=O)N(C)O	> 100 µM (inactive)
COC(=O)c1c(-c2cc(OC)c(OC)c(OC)c2)oc2ccccc2c1=O	> 100 µM (inactive)
CC(=O)O[C@H]1/C(=C/c2ccncc2)C[C@H]2[C@@H]3CC=C4C[C@@H](N5CCCC5)CC[C@]4(C)[C@H]3CC[C@]12C	12.6 µM (inactive)
O=C1SC(c2ccc(Cl)cc2)(c2ccc(Cl)cc2)c2ccccc21	> 100 µM (inactive)
CC(C)CC(NC(=O)OCc1ccccc1)C(=O)NCCCCC(N)C(=O)NC(CCCCNC(=O)C(CC(C)C)NC(=O)OCc1ccccc1)C(=O)NC(CCCCNC(=O)C(CC(C)C)NC(=O)OCc1ccccc1)C(=O)NC(CCCCNC(=O)C(CC(C)C)NC(=O)OCc1ccccc1)C(=O)NC(CCCCNC(=O)C(CC(C)C)NC(=O)OCc1ccccc1)C(=O)NC(CCCCNC(=O)C(CC(C)C)NC(=O)OCc1ccccc1)C(=O)O (centres undefined)	> 100 µM (inactive)

Prompt: What does the data say about its GI50? Entry: Oc1ccc2ccccc2c1/N=N/c1ccc(Br)cc1
Response: 36.1 µM (inactive)

Prompt: Quick one: C[C@@H]1C(=O)CC2C(C)(C)CCC[C@]2(C)[C@@]12CC[C@]1(C=COC1)O2 (some centres undefined)
Response: 36.9 µM (inactive)

Prompt: Quick one: O=c1c(O)c(-c2ccccc2)n(O)c2ccc(Cl)cc12
Response: 29.6 µM (inactive)

Prompt: Quick one: CN(C)CN1C(=O)S/C(=C2\C(=O)N(CN(C)C)c3ccccc32)C1=O
Response: 57.5 µM (inactive)

Prompt: Quick one: N/C(CSCCSC/C(N)=N/O)=N\O
Response: > 100 µM (inactive)

Prompt: Quick one: O=C(Cn1c2ccc(Br)cc2c2nc3ccccc3nc21)Nc1ccccc1
Response: 15.3 µM (inactive)

Prompt: Quick one: CC(C)(CO)CNc1nc(N)nc(Cl)c1/C=N/O
Response: 13 µM (inactive)

Prompt: Quick one: CC(C)(C)c1ccc2c(c1)S(=O)(=O)Nc1ccc(Cl)cc1NS(=O)(=O)c1cc(C(C)(C)C)ccc1OCCOCCOCCO2
Response: 38 µM (inactive)

----------
- Test system: SK-MEL-2
- Measurement Protocol: NCI tumour cell line growth inhibition, 48 h
The source made the active and inactive calls. No stated cut-off is given here; in the data, active = GI50 up to about 1.1 µM and inactive = higher.
In this section we review reported GI50 values for a set of compounds.

Consider the worked cases shown below.
Compound	System Tested	Result
O=c1c(NO)c([N+](=O)[O-])cnn1-c1ccccc1	SK-MEL-2	14.9 µM (inactive)
CC(Oc1ccccc1Cl)C(=O)NN1C(=O)CSC1c1ccc(Cl)cc1 (stereo not drawn)	SK-MEL-2	21.9 µM (inactive)

Kindly review the next compound as well.
Prompt: What does the data say about its GI50? Entry: c1ccc2sc(C3(N4CCCCC4)CCCCCC3)cc2c1
Response: 25.9 µM (inactive)

----------
In this section we review reported GI50 values for a set of compounds.
- Test system: OVCAR-3
- Measurement Protocol: NCI tumour cell line growth inhibition, 48 h
Active and inactive are the calls of the source. No stated cut-off is given here; in the data, active = GI50 up to about 1.1 µM and inactive = higher.

Compound	System Tested	GI50
N#C[BH2-][n+]1cn(C2CC(O)C(COP(=O)(O)OC3CC(n4cnc5c(N)ncnc54)OC3CO)O2)c2nc(N)[nH]c(=O)c21 (stereo not given)	OVCAR-3	> 100 µM (inactive)
COC(=O)c1ccc(Cc2cc(Cc3ccc(C(=O)OC)cc3)cc(Cc3ccc(C(=O)OC)cc3)c2)cc1	OVCAR-3	> 25 µM (inactive)
COc1ccc(Cc2nc3ccccc3s2)cc1OC	OVCAR-3	17.3 µM (inactive)
Cc1cccc(/C=C2\CCCc3ccccc3C2=O)c1	OVCAR-3	26.3 µM (inactive)

Kindly review the next compound as well.
Prompt: What does the data say about its GI50? Entry: Cc1cc(SCC(=O)c2ccc(Br)cc2)cc(C)[o+]1
Response: 21.4 µM (inactive)
